Data provenance: paper PMC9503009

- Target Or System: SERT C109A (Rattus norvegicus, UniProt P31652, C109A)
- Experiment Summary: MTSET inhibition of APP+ uptake in live cells (extracellular pathway cysteine accessibility)
- Condition Description: C109A, 15 min incubation with MTSET; read-out: half-maximal MTSET concentration for inhibition of APP+ accumulation
Quantity Measured: IC50

Measured IC50 of C[N+](C)(C)CCSS(C)(=O)=O.[Br-] [MTSET] : > 1 mM
